Source: PubChem BioAssay (NCI)

Test system: DMS 273 small cell lung
Assay: NCI tumour cell line growth inhibition, 48 h
value-type: TGI

Example results:
[[record]]
compound = "Cc1c(-c2coc(-c3ccc(Cl)cc3)n2)c(=O)n(-c2ccccc2)n1C"
test_system = "DMS 273 small cell lung"
result = "> 100 µM"

[[record]]
compound = "CC(C)=C1CCC(CN2CCCC2)C1=O (stereo unspecified)"
test_system = "DMS 273 small cell lung"
result = "> 100 µM"

[[record]]
compound = "CC[C@@]1(OC(=O)CN(C)C)C(=O)OCc2c1cc1n(c2=O)Cc2cc3ccccc3nc2-1"
test_system = "DMS 273 small cell lung"
result = "0.149 µM"


Fill in the blank: the reported TGI of CCCCCCCCCCCCCCCC(=O)OCC1OC(n2ccc(N)nc2=O)C(O)C1O (stereo unspecified) is ____.
> 100 µM

Fill in the blank: the reported TGI of `O=C1c2cccc3cccc(c23)C(=O)N1CCCN1CCN(CCCN2C(=O)c3cccc4cccc(c34)C2=O)CC1` is ____.
> 100 µM

Fill in the blank: the reported TGI of NC(CO)c1ccccc1 (stereo unspecified) is ____.
> 100 µM

###

System: BT-549 breast
Test: NCI tumour cell line growth inhibition, 48 h
# TGI values compiled below
Expressed in µM, but write only the number.

Example results:
[[record]]
molecule = "C=CC[PH+](c1ccccc1)c1ccccc1.C=CC[PH+](c1ccccc1)c1ccccc1.[Cl][Pt][Cl]"
test_system = "BT-549 breast"
numeric_result = 35.4

[[record]]
molecule = "C/C(=C/CC[C@](C)(OC1OC(CO)C(O)C(O)C1O)[C@H]1CC[C@]2(C)[C@@H]1CC[C@@H]1[C@@]3(C)CC[C@H](O)C(C)(C)[C@@H]3C[C@H](O)[C@]12C)CO (stereo not given in full)"
test_system = "BT-549 breast"
numeric_result = 31.2

[[record]]
molecule = "CSc1s[s+]c(SC)c1-c1ccccc1"
test_system = "BT-549 breast"
numeric_result = 28.2


Fill in the blank: the reported TGI of `CN(C)CCn1c(=O)c2ccc(NCCNCCO)c3c(=O)c4cc(O)ccc4n(c1=O)c23` is ____.
32.4

Fill in the blank: the reported TGI of `COc1cc(/C=C\c2cccnc2Nc2ccccc2)cc(OC)c1OC` is ____.
65.3

Fill in the blank: the reported TGI of `C[C@]12CC[C@@H]3c4ccc(O)cc4CC[C@H]3[C@@H]1CC[C@@H]2NS(=O)(=O)c1ccc(-c2ccccc2)cc1` is ____.
11.7

Fill in the blank: the reported TGI of `c1ccc(C/C(=N\Nc2nc3ccccc3o2)c2ccccn2)cc1` is ____.
5.73

Fill in the blank: the reported TGI of `BrCC[P+](c1ccccc1)(c1ccccc1)c1ccccc1` is ____.
39.6

###

# TGI values compiled below
System: MDA-N
Test: NCI tumour cell line growth inhibition, 48 h

Example results:
[[record]]
compound = "COc1ccc([C@@]23CCC(=O)C[C@@H]2N(C)CC3)cc1OC"
result = "> 100 µM"

[[record]]
compound = "CCOP(=O)(OCC)C(F)(F)CC1CCCCC1"
result = "> 10 µM"

[[record]]
compound = "CCCCCCCC(CC(=O)O)OC(=O)CC(CCCCCCC)OC1OC(C)C(O)C(O)C1OC1OC(C)C(O)C(O)C1O (stereo unspecified)"
result = "> 100 µM"

[[record]]
compound = "COc1ccc(C[C@H]2COC(=O)[C@@H]2Cc2cc(OC)c(OC)c(OC)c2)cc1OC"
result = "> 100 µM"

[[record]]
compound = "COC(=O)CNC(=O)/C=C/[C@H](O[Si](C)(C)C(C)(C)C)[C@H](/C=C/C(=O)NCC(=O)OC)O[Si](C)(C)C(C)(C)C"
result = "> 25 µM"


Moving on to another compound below.
Fill in the blank: the reported TGI of `CN(C)CCNc1nc2ccccc2c2c1C(=O)c1ccccc1-2` is ____.
1.39 µM
